# test_method_notes: Toxicity liver stage against HepG2, at 10uM
# Assay type: cell-based
# Set-up: test concentration 10 uM, cell line HepG2-A16-CD81EGFP
# experimental_context: human, HepG2-A16-CD81EGFP cells; read-out: INHIBITION
measurement_kind: cytotoxicity at 10 µM (%)
Kindly answer with a numeric value in %, unit omitted.

Answered examples (4):
- compound: "CN(Cc1nncn1C)c1nccc(N2CCC(O)CC2)n1"
  cytotoxicity at 10 µM / %: -1.78
- compound: "CCNC(=O)[C@@H]1CN(Cc2ccccc2)C[C@H]1C(=O)c1ccc(F)cc1"
  cytotoxicity at 10 µM / %: 3.38
- compound: "COc1ccc(-n2cnnc2SCC(=O)NC(C)C)cn1"
  cytotoxicity at 10 µM / %: 14
- compound: "CC(=O)NCCC1CCCCN1C(=O)c1cccc(CCC(C)(C)O)c1 (configuration not stated)"
  cytotoxicity at 10 µM / %: 4.13

Consider the compound "Cc1cnn(-c2cccc(N3CCCCC3)n2)c1" . State its measured cytotoxicity at 10 µM.
0.247

Consider the compound "CSCCNC(=O)c1coc(COc2ccc(F)cc2)n1" . State its measured cytotoxicity at 10 µM.
1.75

Consider the compound "Cc1nnsc1CN(C)C(=O)CCn1cnc2ccccc21" . State its measured cytotoxicity at 10 µM.
14.7

The origin of these recorded values is ChEMBL document CHEMBL4513216.
